Taken from PubChem BioAssay AID1918936.

# Tested on: 349418-098-R-PDC complex spheroid viability;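 also: spheroids exposed to agents for seven days before readout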
# EXPERIMENTAL_DETAILS: Anticancer human tumor 349418-098-R-PDC patient-derived lung adenocarcinoma cell line growth inhibition; active = viability on the fitted dose curve at most 10% of control; inactive = the rest
# MEASUREMENT_CONTEXT: second compound 0.316 µM; first compound 0.3 µM
Form entry, call: pick from active, inactive

Examples with answers:
compound="CCN(c1cc(-c2ccc(CN3CCOCC3)cc2)cc(C(=O)NCc2c(C)cc(C)[nH]c2=O)c1C)C1CCOCC1 + NC1CC1c1ccc(-c2cccc(O)c2)cc1" class_assignment=inactive
compound="O=C(C=Cc1cccc(S(=O)(=O)Nc2ccccc2)c1)NO + NC1CCC(NC2CC2c2ccccc2)CC1" class_assignment=inactive
compound="CCc1c2c(nc3ccc(O)cc13)-c1cc3c(c(=O)n1C2)COC(=O)[C@]3(O)CC + NC1CCC(NC2CC2c2ccccc2)CC1" class_assignment=active
compound="Nc1ccn(C2OC(CO)C(O)C2(F)F)c(=O)n1 (configuration not stated) + NC1CC1c1ccc(-c2cccc(O)c2)cc1" class_assignment=active

For Nc1ncn(C2CC(O)C(CO)S2)c(=O)n1 (configuration not stated) + NC1CCC(NC2CC2c2ccccc2)CC1 , what call appears in the results of this test?
active

For COc1cc(C2c3cc4c(cc3C(OC3OC5COC(C)OC5C(O)C3O)C3COC(=O)C23)OCO4)cc(OC)c1O (configuration not stated) + NC1CC1c1ccc(-c2cccc(O)c2)cc1 , what call appears in the results of this test?
active

For Nc1ccccc1NC(=O)c1ccc(CNC(=O)OCc2cccnc2)cc1 + NC1CC1c1ccc(-c2cccc(O)c2)cc1 , what call appears in the results of this test?
inactive
